experiment: The results of in vitro plasma stability, microsomal stability, CYP inhibition and PK profile of S100A8/A9 peptides and rCT-S100A8/A9 proteins; details: mouse, plasma, ip, 1 mg/kg; read-out: PK parameters (ip, 1 mg/kg, mice (n = 5))^a | Cmax
No end group written: not given here.
Readout Kind: Cmax (ng/mL)

[[record]]
seq_string = "FLVIKGGAHKSHKGGITIITFGGGHHGG [S100A8/A9]"
data_value = 102

